Target Under Test: recombinant human ACC1 (rhACC1) (Homo sapiens (Human), UniProt Q13085)
Assay Text: Transcreener ADP detection FP assay, direct inhibition of rhACC1
Run Parameters: Geomean IC50, n ≥ 2 unless * then n = 1; 50 μM ATP, 30 μM acetyl-CoA
Experimental: The direct inhibition of ACC1 for the compounds of the present invention was determined using preparations of recombinant human ACC1 (rhACC1) (SEQ ID NO. 1) […]
Measured Quantity: pIC50
One number for each entry, as −log10 of the molar value.

>>> value_reported("COc1cc(C(=O)N2CCC3(CC2)CC(=O)c2nc(C(C)(C)C)sc2C3)cc2cc[nH]c12 [Example 106]")
7.89

Hey, can you go through the list below and give me pIC50 for every item?
1. COc1cnc2c(OC)cc(C(=O)N3CCC4(CC3)CC(=O)c3nc(C(C)(C)C)sc3C4)cc2c1 [Example 101]
2. CNc1nc2ccc(OC)cc2cc1C(=O)N1CCC2(CC1)CC(=O)c1nc(C(C)(C)C)sc1C2 [Example 77]

1. 8.00
2. 8.03
